biological target: EP4 subtype of the human PGE2 receptor (Homo sapiens, UniProt P35408); test: cAMP antagonism test on the human EP4 receptor (HTRF cAMP detection); format: cell-based; conditions: selectivity towards hEP4, IC50 measured by cAMP antagonism test
Sequence (P35408 whole entry): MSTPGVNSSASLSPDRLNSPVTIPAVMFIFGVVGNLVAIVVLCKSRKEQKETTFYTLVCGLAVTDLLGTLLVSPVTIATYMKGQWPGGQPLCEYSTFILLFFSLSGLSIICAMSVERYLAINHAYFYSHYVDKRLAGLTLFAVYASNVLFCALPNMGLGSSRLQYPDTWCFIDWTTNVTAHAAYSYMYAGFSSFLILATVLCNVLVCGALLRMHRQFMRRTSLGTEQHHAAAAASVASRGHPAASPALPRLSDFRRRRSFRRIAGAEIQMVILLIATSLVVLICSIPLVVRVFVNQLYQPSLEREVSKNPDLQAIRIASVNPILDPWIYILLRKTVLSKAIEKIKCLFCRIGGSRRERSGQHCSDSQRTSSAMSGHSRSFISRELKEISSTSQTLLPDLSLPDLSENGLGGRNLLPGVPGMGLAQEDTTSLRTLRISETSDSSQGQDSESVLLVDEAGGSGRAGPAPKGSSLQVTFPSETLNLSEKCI
QUANTITY_NAME: Selectivity hEP2/hEP4

compound_structure=COCCNC(=O)c1ccc2nn(CC3CCN(C(=O)c4ccc(-c5cc(F)cc(F)c5)c(C)c4)CC3)cc2c1C result="xxx (xxx > 100)"
compound_structure=COc1cc(F)ccc1-c1ccc(C(=O)N2CCC(Cn3cc4c(C)c(C(=O)NCC(F)(F)F)ccc4n3)CC2)cc1 result="xxx (xxx > 100)"
compound_structure=Cc1cc2nn(CC3CN(C(=O)c4ccc(Cl)cc4)C3)cc2cc1C(=O)NCCSC(F)(F)F result="xxx (xxx > 100)"

---

biological target: EP2 subtype of the human PGE2 receptor (Homo sapiens); test: cAMP antagonism test on the human EP2 receptor (HTRF cAMP detection); type: cell-based; details: hEP2 receptor, read-out: Antagonism hEP2 IC50
Sequence (P43116 whole entry): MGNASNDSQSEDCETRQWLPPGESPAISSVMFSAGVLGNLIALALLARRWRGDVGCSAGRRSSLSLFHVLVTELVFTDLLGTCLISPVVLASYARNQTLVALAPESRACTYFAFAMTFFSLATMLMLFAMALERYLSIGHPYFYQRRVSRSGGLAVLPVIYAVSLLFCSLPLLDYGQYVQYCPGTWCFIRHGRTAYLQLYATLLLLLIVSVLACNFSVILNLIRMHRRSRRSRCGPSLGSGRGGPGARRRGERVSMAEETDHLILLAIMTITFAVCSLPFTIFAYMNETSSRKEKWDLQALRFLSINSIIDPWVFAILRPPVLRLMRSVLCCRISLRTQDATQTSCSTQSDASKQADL
# if measured IC50 < 30 nM: label 1  # else: label 0

Incoming: Below 30 nM on IC50? Entry COCCNC(=O)c1ccc2nn(CC3CCN(C(=O)c4ccc(-c5ccccc5OC(F)(F)F)cc4F)CC3)cc2c1C
Outgoing: label 1

---

biological target: EP2 subtype of the human PGE2 receptor (Homo sapiens); test: cAMP antagonism test on the human EP2 receptor (HTRF cAMP detection); assay type: cell-based; conditions: hEP2 receptor, read-out: Antagonism hEP2 IC50
Kindly state IC50 for each of the entries shown.
Numbers only, in nM.

compound=COCCNC(=O)c1ccc2nn(CC3CCN(C(=O)c4ccc(N5CCOCC5)cc4)CC3)cc2c1C system_name="EP2 subtype of the human PGE2 receptor (Homo sapiens)" uom=nM quantitative_result=68.1
compound="COC(C)CNC(=O)c1cc2cn(CC3CN(C(=O)c4ccc(OC(F)(F)F)cc4)C3)nc2cc1C (racemic)" system_name="EP2 subtype of the human PGE2 receptor (Homo sapiens)" uom=nM quantitative_result=145
compound=COCCNC(=O)c1ccc2nn(CC3CCN(C(=O)c4cn(C)c5ccccc45)CC3)cc2c1OC system_name="EP2 subtype of the human PGE2 receptor (Homo sapiens)" uom=nM quantitative_result=18.5

Consider now this further compound.
Incoming: // IC50 lookup, key: COCCNC(=O)c1ccc2nn(CC3CCN(C(=O)c4ccc(Br)cc4)CC3)cc2c1C
Outgoing: 4.74

---

biological target: EP2 subtype of the human PGE2 receptor (Homo sapiens); test: cAMP antagonism test on the human EP2 receptor (HTRF cAMP detection); format: cell-based; conditions: hEP2 receptor, read-out: Antagonism hEP2 IC50
Give measured pIC50 for each item. Keep answers brief.
Give bare numbers, as −log10 of the molar value.

// solved cases for pIC50 follow
compound=COc1c(C(=O)NCCN2CCC(F)(F)C2)ccc2nn(CC3CN(C(=O)c4ccc(Cl)cc4)C3)cc12 quantitative_result=8.10
compound=COCCNC(=O)c1ccc2nn(CC3CCN(C(=O)c4ccc(Oc5ccc(F)cc5)cc4)CC3)cc2c1C quantitative_result=8.31
compound=Cc1c(C(=O)NCCOC(C)(C)C)ccc2nn(CC3CN(C(=O)c4ccc(Cl)cc4)C3)cc12 quantitative_result=7.22
compound=COc1cc(F)ccc1-c1ccc(C(=O)N2CCC(Cn3cc4c(C)c(C(=O)NCC(F)(F)F)ccc4n3)CC2)cc1 quantitative_result=7.81
compound="Cc1c(C(=O)NCC2COCCO2)ccc2nn(CC3CCN(C(=O)c4ccc(Cl)cc4)CC3)cc12 (single isomer, unassigned) [Example 415]" quantitative_result=7.67
compound=Cc1c(C(=O)NCCN2CCOCC2)ccc2nn(CC3CCN(C(=O)c4cccc(C(F)(F)F)c4)CC3)cc12 quantitative_result=5.55
compound=Cc1c(C(=O)NCCOC(F)(F)F)ccc2nn(CC3CCN(C(=O)c4ccc(Cl)cc4)CC3)cc12 quantitative_result=7.94
compound=COCCNC(=O)c1ccc2nn(CC3CCN(C(=O)c4ccc(-n5cncn5)cc4)CC3)cc2c1C quantitative_result=6.95

I have 6 compounds here; please give me pIC50 for each one.
1. COCCNC(=O)c1ccc2nn(CC3CN(C(=O)c4ccc(Cl)cc4F)C3)cc2c1OC
2. Cc1c(C(=O)NCCC(C)(C)O)ccc2nn(CC3CCN(C(=O)c4ccc(Cl)cc4)CC3)cc12
3. Cc1cc2nn(CC3CN(C(=O)c4ccc(OC(F)(F)F)cc4)C3)cc2cc1C(=O)NCCN1CCOCC1
4. Cc1c(C(=O)NCC(F)(F)F)ccc2nn(CC3CCN(C(=O)c4ccc(Oc5ccc(Cl)cc5)cc4)CC3)cc12
5. Cc1c(C(=O)NCCOCC2CC2)ccc2nn(CC3CCN(C(=O)c4ccc(C5CC5)cc4)CC3)cc12
6. COCCNC(=O)c1cc2cn(CC3CN(C(=O)c4ccc(-c5ccc(F)cc5)cc4)C3)nc2cc1C

Outgoing:
6.99
6.23
7.24
7.25
8.03
8.00

Look at each compound and report its pIC50.
1. COCCNC(=O)c1ccc2nn(CC3CN(C(=O)c4ccc(Cl)c(C(F)(F)F)c4)C3)cc2c1OC
2. COCCNC(=O)c1ccc2nn(CC3CN(C(=O)c4ccc(Oc5ccc(Cl)cc5)cc4)C3)cc2c1C
3. Cc1cc2nn(CC3CCN(C(=O)c4ccc(-c5ccc(F)cc5)cc4)CC3)cc2cc1C(=O)NCCN1CCOCC1

Outgoing:
[6.97, 8.54, 7.49]

Entry source: patent US9062041B2
